# target of assay: Tyrosine-protein phosphatase non-receptor type 1 (Rattus norvegicus)
# Sequence (whole entry): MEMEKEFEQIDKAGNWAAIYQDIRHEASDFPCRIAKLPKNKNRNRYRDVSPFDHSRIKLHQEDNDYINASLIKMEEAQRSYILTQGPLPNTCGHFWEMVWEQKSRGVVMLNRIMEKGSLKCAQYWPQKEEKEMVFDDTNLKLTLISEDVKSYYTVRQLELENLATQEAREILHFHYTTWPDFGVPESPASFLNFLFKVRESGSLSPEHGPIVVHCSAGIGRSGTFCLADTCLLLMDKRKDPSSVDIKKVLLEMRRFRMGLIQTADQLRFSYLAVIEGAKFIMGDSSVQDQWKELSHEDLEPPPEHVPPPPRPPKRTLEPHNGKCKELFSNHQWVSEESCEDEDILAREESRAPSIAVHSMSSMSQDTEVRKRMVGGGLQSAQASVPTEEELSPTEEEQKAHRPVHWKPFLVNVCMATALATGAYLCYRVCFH
# protocol details: Inhibition of PTPase (PTP1B) activity in rat hepatic membrane at 50 uM concentration, using pNPP as the substrate
# Type: cell membranes
# conditions: Liver
compounds and their reported inhibition

- compound: "Cc1oc(-c2ccccc2)nc1COc1cccc(C#CC(C)n2oc(=O)[nH]c2=O)c1 (stereo not given)"
  inhibition: "23%"
- compound: "C/C(=C\\CC1SC(=O)NC1=O)c1cccc(OCc2nc(-c3ccc(OC(F)(F)F)cc3)oc2C)c1 (stereo not given)"
  inhibition: "46%"
- compound: "Cc1oc(-c2ccc(OC(F)(F)F)cc2)nc1COc1cccc(C(C)CCn2oc(=O)[nH]c2=O)c1 (stereo not given)"
  inhibition: "47%"
- compound: "C/C(=C\\CC1OC(=O)NC1=O)c1cccc(OCc2nc(-c3ccccc3)oc2C)c1 (stereo not given)"
  inhibition: "23%"

---

compounds and their reported inhibition
# target of assay: Tyrosine-protein phosphatase non-receptor type 1 (Rattus norvegicus) (UniProt P20417)
# protocol details: Inhibition of PTPase activity using recombinant r-PTP1B as the enzyme and IR-triphosphopeptide as substrate at 50 uM

- compound: "Cc1oc(-c2ccc(C(F)(F)F)cc2)nc1COc1cccc(/C(=C/Cn2oc(=O)[nH]c2=O)C(C)(C)C)c1"
  inhibition [%]: 0.6
- compound: "Cc1oc(-c2ccc(C(F)(F)F)cc2)nc1COc1cccc(/C(=C/Cn2oc(=O)[nH]c2=O)Cc2ccccc2)c1"
  inhibition [%]: 0.8
- compound: "CCCC/C(=C\\Cn1oc(=O)[nH]c1=O)c1cccc(OCc2nc(-c3ccc(C(F)(F)F)cc3)oc2C)c1"
  inhibition [%]: 1.9
- compound: "C/C(=C\\Cn1oc(=O)[nH]c1=O)c1cccc(OCc2nc(-c3ccc(C(F)(F)F)cc3)oc2C)c1"
  inhibition [%]: 1.9
- compound: "Cc1oc(-c2ccc(C(F)(F)F)cc2)nc1COc1cccc(/C(=C/Cn2oc(=O)[nH]c2=O)c2ccc(Cl)cc2)c1"
  inhibition [%]: 1.4
- compound: "Cc1oc(-c2ccc(C(F)(F)F)cc2)nc1COc1cccc(/C(=C/Cn2oc(=O)[nH]c2=O)c2ccc(F)cc2)c1"
  inhibition [%]: 1.2
- compound: "Cc1oc(-c2ccc(C(F)(F)F)cc2)nc1COc1cccc(/C(=C/Cn2oc(=O)[nH]c2=O)c2ccccc2)c1"
  inhibition [%]: 1.1
- compound: "Cc1oc(-c2ccc(C(F)(F)F)cc2)nc1COc1cccc(/C(=C/Cn2oc(=O)[nH]c2=O)C2CCCCC2)c1"
  inhibition [%]: 49
- compound: "Cc1oc(-c2ccc(C(F)(F)F)cc2)nc1COc1cccc(CCCn2oc(=O)[nH]c2=O)c1"
  inhibition [%]: 4.3
- compound: "C/C(=C\\c1cccc(OCc2nc(-c3ccc(C(F)(F)F)cc3)oc2C)c1)Cn1oc(=O)[nH]c1=O"
  inhibition [%]: 7
- compound: "COc1ccc(/C(=C\\Cn2oc(=O)[nH]c2=O)c2cccc(OCc3nc(-c4ccc(C(F)(F)F)cc4)oc3C)c2)cc1"
  inhibition [%]: 34
- compound: "COc1cc(OCc2nc(-c3ccc(C(F)(F)F)cc3)oc2C)cc(/C(C)=C/Cn2oc(=O)[nH]c2=O)c1"
  inhibition [%]: 12
- compound: "Cc1oc(-c2ccc(C(F)(F)F)cc2)nc1COc1cccc(C2(C)CC2Cn2oc(=O)[nH]c2=O)c1 (stereo not given)"
  inhibition [%]: 1
- compound: "Cc1oc(-c2ccc(C(F)(F)F)cc2)nc1COc1ccc2c(c1)C=C/C2=C\\Cn1oc(=O)[nH]c1=O"
  inhibition [%]: 83
- compound: "C/C(=C\\Cn1oc(=O)[nH]c1=O)c1ccc2oc(Cc3nc(-c4ccc(C(F)(F)F)cc4)oc3C)cc2c1"
  inhibition [%]: 53

---

compounds and their reported inhibition
# target of assay: Tyrosine-protein phosphatase non-receptor type 1 (Rattus norvegicus)
# protocol details: Inhibition of PTPase (PTP1B) activity in rat hepatic membrane at 50 uM concentration, using pNPP as the substrate
# Type: cell membranes
# conditions: Liver
measurement type: inhibition

- compound: "C/C(=C\\Cn1oc(=O)[nH]c1=O)c1cccc(OCc2nc(-c3ccc(C(F)(F)F)cc3)oc2C)c1"
  reading: "49%"
- compound: "Cc1oc(-c2ccc(C(F)(F)F)cc2)nc1COc1cccc(/C=C/C(C)n2oc(=O)[nH]c2=O)c1 (centres undefined)"
  reading: "49%"
- compound: "Cc1oc(-c2ccc(C(F)(F)F)cc2)nc1COc1cccc(/C(I)=C/Cn2oc(=O)[nH]c2=O)c1"
  reading: "51%"
- compound: "CCC/C(=C/Cn1oc(=O)[nH]c1=O)c1cccc(OCc2nc(-c3ccc(C(F)(F)F)cc3)oc2C)c1"
  reading: "58%"

---

# target of assay: Tyrosine-protein phosphatase non-receptor type 1 (Rattus norvegicus) (UniProt P20417)
# protocol details: Inhibition of PTPase (PTP1B) activity in rat hepatic membrane at 50 uM concentration, using pNPP as the substrate
# Assay type: cell membranes
# conditions: Liver
compounds and their reported inhibition
measurement type: inhibition (%)

- compound: "C/C(=C\\CC1OC(=O)NC1=O)c1cccc(OCCc2nc(-c3ccccc3)oc2C)c1 (stereo not drawn)"
  target of assay: "Tyrosine-protein phosphatase non-receptor type 1 (Rattus norvegicus) (UniProt P20417)"
  readout units: "%"
  reading: 36
- compound: "CCCC/C(=C\\Cn1oc(=O)n(CC(=O)O)c1=O)c1cccc(OCc2cc(Cl)cc(Cl)c2)c1"
  target of assay: "Tyrosine-protein phosphatase non-receptor type 1 (Rattus norvegicus) (UniProt P20417)"
  readout units: "%"
  reading: 31
- compound: "C/C(=C\\Cn1oc(=O)[nH]c1=O)c1cccc(OCc2nc(-c3ccc(OCC(F)(F)F)cc3)oc2C)c1"
  target of assay: "Tyrosine-protein phosphatase non-receptor type 1 (Rattus norvegicus) (UniProt P20417)"
  readout units: "%"
  reading: 52
- compound: "COc1ccc(/C(=C\\Cn2oc(=O)[nH]c2=O)c2cccc(OCc3nc(-c4ccc(C(F)(F)F)cc4)oc3C)c2)cc1"
  target of assay: "Tyrosine-protein phosphatase non-receptor type 1 (Rattus norvegicus) (UniProt P20417)"
  readout units: "%"
  reading: 56
- compound: "C/C(=C\\CC1OC(=O)NC1=O)c1cccc(OCc2nc(-c3ccc(OCC(F)(F)F)cc3)oc2C)c1 (stereo not drawn)"
  target of assay: "Tyrosine-protein phosphatase non-receptor type 1 (Rattus norvegicus) (UniProt P20417)"
  readout units: "%"
  reading: 37
- compound: "CC/C(=C\\c1cccc(OCc2nc(-c3ccc(C(F)(F)F)cc3)oc2C)c1)n1oc(=O)[nH]c1=O"
  target of assay: "Tyrosine-protein phosphatase non-receptor type 1 (Rattus norvegicus) (UniProt P20417)"
  readout units: "%"
  reading: 58
- compound: "C/C(=C\\Cn1oc(=O)[nH]c1=O)c1cccc(OCc2coc(-c3ccc(C(F)(F)F)cc3)n2)c1"
  target of assay: "Tyrosine-protein phosphatase non-receptor type 1 (Rattus norvegicus) (UniProt P20417)"
  readout units: "%"
  reading: 32
- compound: "C/C(=C\\Cn1oc(=O)[nH]c1=O)c1cccc(OCc2ccc3c(Cl)cccc3c2)c1"
  target of assay: "Tyrosine-protein phosphatase non-receptor type 1 (Rattus norvegicus) (UniProt P20417)"
  readout units: "%"
  reading: 20
- compound: "CC1(COc2ccc(CC3SC(=O)NC3=O)cc2)CCCCC1 (stereo not drawn) [CIGLITAZONE]"
  target of assay: "Tyrosine-protein phosphatase non-receptor type 1 (Rattus norvegicus) (UniProt P20417)"
  readout units: "%"
  reading: 20
- compound: "C/C(=C\\Cn1oc(=O)[nH]c1=O)c1cccc(OCc2nc(-c3ccc(OC(F)(F)F)cc3)oc2C)c1"
  target of assay: "Tyrosine-protein phosphatase non-receptor type 1 (Rattus norvegicus) (UniProt P20417)"
  readout units: "%"
  reading: 57
- compound: "Cc1oc(-c2ccc(C(F)(F)F)cc2)nc1COc1cccc(/C(=C/Cn2oc(=O)n(CC(=O)O)c2=O)c2ccccc2)c1"
  target of assay: "Tyrosine-protein phosphatase non-receptor type 1 (Rattus norvegicus) (UniProt P20417)"
  readout units: "%"
  reading: 24
- compound: "C/C(=C\\Cn1oc(=O)[nH]c1=O)c1ccc(OCc2nc(-c3ccc(C(F)(F)F)cc3)oc2C)cc1"
  target of assay: "Tyrosine-protein phosphatase non-receptor type 1 (Rattus norvegicus) (UniProt P20417)"
  readout units: "%"
  reading: 4.3
- compound: "C/C(=C\\Cn1oc(=O)[nH]c1=O)c1cccc(OCCc2nc(-c3ccccc3)oc2C)c1"
  target of assay: "Tyrosine-protein phosphatase non-receptor type 1 (Rattus norvegicus) (UniProt P20417)"
  readout units: "%"
  reading: 45

Data origin: ChEMBL document CHEMBL1132971
